Tested on: liver HepG-2 cancer cell line
TEST: In vitro cytotoxic activity (MTT assay), HepG-2
CONDITIONS USED: Homo sapiens, HepG2, read-out: IC50 (mean ± SD) HepG-2
MEASURED QUANTITY: pIC50
Please express pIC50 as -log10 of the molar concentration.

Ask | Requested read-out: pIC50. Entry: O=S(=O)(NC1CCCCC1)c1ccc(-n2cc(CO[C@@H]3OC[C@@H](O)[C@H](O)[C@H]3O)nn2)cc1
Reply | 4.52

Ask | Entry COc1cccc2c1C(=O)c1c(O)c3c(c(O)c1C2=O)C[C@@](O)(C(=O)CO)C[C@@H]3O[C@H]1C[C@H](N)[C@H](O)[C@H](C)O1 [Doxorubicin, reference compound] has what pIC50?
Reply | 4.86

Ask | Name the reported pIC50 value associated with the compound CC(=O)O[C@@H]1[C@@H](OC(C)=O)[C@H](OCc2cn(-c3ccc(S(=O)(=O)NC4CCCCC4)cc3)nn2)OC[C@H]1OC(C)=O
Reply | 5.08

Ask | Form field: reported pIC50 of CCCCNS(=O)(=O)c1ccc(-n2cc(CO[C@@H]3OC[C@@H](OC(C)=O)[C@H](OC(C)=O)[C@H]3OC(C)=O)nn2)cc1
Reply | 4.33

Ask | Fill blank: measured pIC50 of the compound [N-]=[N+]=Nc1ccc(S(=O)(=O)NC2CCCCC2)cc1 [Compound 4, 4-Azido-N-cyclohexylbenzenesulfonamide] is ____.
Reply | 4.90

Ask | Recorded pIC50 for CC(=O)OC[C@H]1O[C@@H](OCc2cn(-c3ccc(S(=O)(=O)NC4CCCCC4)cc3)nn2)[C@H](OC(C)=O)[C@@H](OC(C)=O)[C@H]1OC(C)=O , please?
Reply | 4.98

###

Tested on: colorectal HCT-116 cancer cell line
TEST: In vitro cytotoxic activity (MTT assay), HCT-116
Type: cell-based, human
CONDITIONS USED: 100 µM
Exercise: state measured percentage cytotoxicity on HCT-116 for each of the molecules provided.
Field format: number, assumed %, no unit text.

Ask | Tell me the measured percentage cytotoxicity on HCT-116 of CC(=O)OC[C@H]1O[C@@H](OCc2cn(-c3ccc(S(=O)(=O)NC4CCCCC4)cc3)nn2)[C@H](OC(C)=O)[C@@H](OC(C)=O)[C@H]1OC(C)=O , please.
Reply | 75.70

Ask | // returns reported percentage cytotoxicity on HCT-116 for input O=S(=O)(NC1CCCCC1)c1ccc(-n2cc(CO[C@@H]3OC[C@@H](O)[C@H](O)[C@H]3O)nn2)cc1
Reply | 70.10

Ask | GET /values?readout=percentage cytotoxicity on HCT-116&item= [N-]=[N+]=Nc1ccc(S(=O)(=O)NC2CCCCC2)cc1 [Compound 4, 4-Azido-N-cyclohexylbenzenesulfonamide]
Reply | 94.83

Ask | State the recorded percentage cytotoxicity on HCT-116 for this entry: CC(=O)O[C@@H]1[C@@H](OC(C)=O)[C@H](OCc2cn(-c3ccc(S(=O)(=O)NC4CCCCC4)cc3)nn2)OC[C@H]1OC(C)=O
Reply | 75.70

###

Tested on: colorectal HCT-116 cancer cell line
TEST: In vitro cytotoxic activity (MTT assay), HCT-116
Type: cell-based, human
CONDITIONS USED: 25 µM
MEASURED QUANTITY: percentage cytotoxicity on HCT-116 (%)
Please give a number only; it is taken to be in %.

Ask | Entry CC(=O)O[C@@H]1[C@@H](OC(C)=O)[C@H](OCc2cn(-c3ccc(S(=O)(=O)NC4CCCCC4)cc3)nn2)OC[C@H]1OC(C)=O [Compound 9] : reported percentage cytotoxicity on HCT-116 = ?
Reply | 53.50

Ask | Given [N-]=[N+]=Nc1ccc(S(=O)(=O)NC2CCCCC2)cc1 [Compound 4, 4-Azido-N-cyclohexylbenzenesulfonamide] , state its recorded percentage cytotoxicity on HCT-116.
Reply | 51.93

Ask | Could you tell me which percentage cytotoxicity on HCT-116 is on file for O=S(=O)(NC1CCCCC1)c1ccc(-n2cc(CO[C@@H]3OC[C@@H](O)[C@H](O)[C@H]3O)nn2)cc1 [Compound 13] ?
Reply | 28.51

Ask | Item under review: CC(=O)OC[C@H]1O[C@@H](OCc2cn(-c3ccc(S(=O)(=O)NC4CCCCC4)cc3)nn2)[C@H](OC(C)=O)[C@@H](OC(C)=O)[C@H]1OC(C)=O [Compound 7] . Reported percentage cytotoxicity on HCT-116?
Reply | 48.80

###

System: breast MCF-7 cancer cell line
TEST: In vitro cytotoxic activity (MTT assay), MCF-7
Type: cell-based, human
CONDITIONS USED: 25 µM
MEASURED QUANTITY: percentage cytotoxicity on MCF-7 (%)
Write the number in % without appending the unit.

Ask | Quick one: percentage cytotoxicity on MCF-7 of CC(=O)OC[C@H]1O[C@@H](OCc2cn(-c3ccc(S(=O)(=O)NC4CCCCC4)cc3)nn2)[C@H](OC(C)=O)[C@@H](OC(C)=O)[C@H]1OC(C)=O ?
Reply | 55.90

Ask | If you can, please state the reported percentage cytotoxicity on MCF-7 value of O=S(=O)(NC1CCCCC1)c1ccc(-n2cc(CO[C@@H]3OC[C@@H](O)[C@H](O)[C@H]3O)nn2)cc1 .
Reply | 48.07

Ask | I have this compound here, CC(=O)O[C@@H]1[C@@H](OC(C)=O)[C@H](OCc2cn(-c3ccc(S(=O)(=O)NC4CCCCC4)cc3)nn2)OC[C@H]1OC(C)=O , and I need its recorded percentage cytotoxicity on MCF-7.
Reply | 52.27

Ask | Please give the measured percentage cytotoxicity on MCF-7 for this compound: CCCCNS(=O)(=O)c1ccc(-n2cc(CO[C@@H]3OC[C@@H](OC(C)=O)[C@H](OC(C)=O)[C@H]3OC(C)=O)nn2)cc1
Reply | 36.13

Ask | Item [N-]=[N+]=Nc1ccc(S(=O)(=O)NC2CCCCC2)cc1 [Compound 4, 4-Azido-N-cyclohexylbenzenesulfonamide] has what recorded percentage cytotoxicity on MCF-7?
Reply | 58.31

###

Exercise: for every item that follows, state its recorded melting point.

Ask | Look up melting point for this molecule: CCCCNS(=O)(=O)c1ccc(-n2cc(CO[C@@H]3OC[C@@H](O)[C@H](O)[C@H]3O)nn2)cc1
Reply | 150 to 152 °C

Ask | # get_value(readout='melting point', item= [N-]=[N+]=Nc1ccc(S(=O)(=O)NC2CCCCC2)cc1 [Compound 4, 4-Azido-N-cyclohexylbenzenesulfonamide] )
Reply | 65 to 67 °C

Ask | State the recorded melting point for this entry: CCCCNS(=O)(=O)c1ccc(-n2cc(CO[C@@H]3O[C@H](CO)[C@H](O)[C@H](O)[C@H]3O)nn2)cc1
Reply | 100 to 102 °C

Ask | Name the recorded melting point for O=S(=O)(NC1CCCCC1)c1ccc(-n2cc(CO[C@@H]3OC[C@@H](O)[C@H](O)[C@H]3O)nn2)cc1 .
Reply | 160 to 162 °C

Ask | Any idea what its melting point is? The molecule is O=S(=O)(NC1CCCCC1)c1ccc(-n2cc(CO[C@@H]3O[C@H](CO)[C@H](O)[C@H](O)[C@H]3O)nn2)cc1
Reply | 118 to 120 °C

Ask | Fill blank: measured melting point of the molecule CCCCNS(=O)(=O)c1ccc(N=[N+]=[N-])cc1 [Compound 3, 4-Azido-N-butylbenzenesulfonamide] is ____.
Reply | 47 to 49 °C

###

Test system: colorectal HCT-116 cancer cell line
TEST: In vitro cytotoxic activity (MTT assay), HCT-116
Type: cell-based, human
CONDITIONS USED: 12.5 µM
MEASURED QUANTITY: percentage cytotoxicity on HCT-116 (%)
Numbers only; they are read as %.

Ask | Query (compound): CC(=O)O[C@@H]1[C@@H](OC(C)=O)[C@H](OCc2cn(-c3ccc(S(=O)(=O)NC4CCCCC4)cc3)nn2)OC[C@H]1OC(C)=O ; field requested: percentage cytotoxicity on HCT-116
Reply | 34.51

Ask | I am curious: what percentage cytotoxicity on HCT-116 value has been reported for [N-]=[N+]=Nc1ccc(S(=O)(=O)NC2CCCCC2)cc1 [Compound 4, 4-Azido-N-cyclohexylbenzenesulfonamide] ?
Reply | 34.64

Ask | Which percentage cytotoxicity on HCT-116 value belongs to CC(=O)OC[C@H]1O[C@@H](OCc2cn(-c3ccc(S(=O)(=O)NC4CCCCC4)cc3)nn2)[C@H](OC(C)=O)[C@@H](OC(C)=O)[C@H]1OC(C)=O ?
Reply | 32.50

Ask | # lookup: percentage cytotoxicity on HCT-116 of O=S(=O)(NC1CCCCC1)c1ccc(-n2cc(CO[C@@H]3OC[C@@H](O)[C@H](O)[C@H]3O)nn2)cc1
Reply | 11.00
